// data source = PubChem BioAssay (Tox21)

# system name: KiSS-1 receptor (Homo sapiens) (UniProt Q969F8)
# Sequence (Q969F8 whole entry, looked up): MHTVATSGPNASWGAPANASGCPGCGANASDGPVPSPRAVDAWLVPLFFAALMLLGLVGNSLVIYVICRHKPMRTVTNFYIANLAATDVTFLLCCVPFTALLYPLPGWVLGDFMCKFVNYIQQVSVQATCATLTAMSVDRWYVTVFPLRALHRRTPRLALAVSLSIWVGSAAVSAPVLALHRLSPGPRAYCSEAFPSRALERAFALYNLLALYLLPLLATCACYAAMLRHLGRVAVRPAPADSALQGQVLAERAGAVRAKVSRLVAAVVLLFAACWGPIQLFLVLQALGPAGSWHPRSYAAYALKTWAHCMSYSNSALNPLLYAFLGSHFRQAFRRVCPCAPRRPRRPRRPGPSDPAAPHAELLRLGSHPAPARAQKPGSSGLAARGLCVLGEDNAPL
# assay text: Human kisspeptin (KISS1R) small molecule agonists, calcium flux assay in KISS1R-HEK293 cells (AID 1920064)
# experimental conditions: KISS1R-HEK293, calcium flux fluorescence, agonist; series mostly up to 76.8 µM
Activity calls are given as the source filed them. The call rests on the fitted dose curve; in most records, active means well fitted activation curve with a large enough effect in the repeat runs; inconclusive means weak or mixed curves; inactive means flat fitted curve, though single readings scatter.
recorded endpoint: activation

C=C[Si]1(C)O[Si](C)(C=C)O[Si](C)(C=C)O[Si](C)(C=C)O1 (stereo unspecified) : inactive
O=C(NCC(O)CO)c1c(I)c(C(=O)NCC(O)CO)c(I)c(N(CCO)C(=O)CO)c1I (stereo unspecified) : inactive
C[C@H]1c2cccc(O)c2C(O)=C2C(=O)[C@]3(O)C(O)=C(C(N)=O)C(=O)[C@@H](N(C)C)[C@@H]3[C@@H](O)[C@@H]21 : inactive
Brc1cc(Br)c(Oc2cc(Br)c(Br)cc2Br)cc1Br : inactive
CCc1ccc2c(c1)C(=O)c1ccccc1C2=O : inactive

Data request, read-out activation, for CCC(C)N (stereo unspecified) inactive

Which activation value belongs to O=C(CCCN1CCN(c2ccc(F)cc2)CC1)NC1c2ccccc2CSc2ccccc21 (stereo unspecified) ? inactive

activation lookup needed for `OC(C#CCN1CCCC1)(c1ccccc1)c1ccccc1` , thanks. inactive

Consider the compound shown here: `C/C=C/C=C/C=O` What is its recorded activation? inactive

What value of activation has been recorded for this entry: `O=C(O)CC(=O)C(=O)O` inactive

Please give the measured activation for this compound: `CN(C)CCN(Cc1ccccc1)c1ccccn1` inactive

----------
# system name: 5-hydroxytryptamine receptor 2A (Homo sapiens) (UniProt P28223)
# Sequence (P28223 whole entry, looked up): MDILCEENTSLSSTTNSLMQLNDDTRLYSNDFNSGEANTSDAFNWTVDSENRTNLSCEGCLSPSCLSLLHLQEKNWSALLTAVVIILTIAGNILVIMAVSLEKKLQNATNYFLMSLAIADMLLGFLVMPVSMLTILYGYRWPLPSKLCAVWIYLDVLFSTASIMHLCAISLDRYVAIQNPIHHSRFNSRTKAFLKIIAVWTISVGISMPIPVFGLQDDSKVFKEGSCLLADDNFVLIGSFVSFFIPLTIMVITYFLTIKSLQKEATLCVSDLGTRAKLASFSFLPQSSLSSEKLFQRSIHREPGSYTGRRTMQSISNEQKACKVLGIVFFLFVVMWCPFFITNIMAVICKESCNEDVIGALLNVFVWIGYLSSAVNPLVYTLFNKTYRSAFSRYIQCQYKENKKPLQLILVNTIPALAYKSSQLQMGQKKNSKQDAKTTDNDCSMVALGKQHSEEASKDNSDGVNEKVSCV
# assay text: 5-hydroxytryptamine receptor 2A (HTR2A) small molecule antagonists, cell-based qHTS assay (AID 1963586); further: nearly all actives have a fitted effect of over 45% in size
# experimental conditions: HTR2A-CHO cells, DOI-induced calcium flux, fluorescence; series mostly up to 61.5 µM
# Description: National Center for Advancing Translational Sciences [NCATS] Division of Preclinical Innovation [DPI] U.S. Environmental Protection Agency [EPA] National Institutes of Environmental Health Sciences [NIEHS] National Toxicology Program [NTP] […] HTR2A-CHO cells were dispensed at 2000 cells/3uL/well in 1536-well black-clear bottom plates using a Multidrop Dispenser. […] The fluorescence intensity in the plates was measured using FDSS 7000EX kinetic plate reader for 3 min at 1 sec intervals.
Results filed as inconclusive are left out. Calls of active or inactive are those of the source. Calls come from the whole dose curve.
Please reply with one of these outcomes: active, inactive

A selection of reference data follows.
CC(=O)OCC1=C(C(=O)O)N2C(=O)[C@@H](NC(=O)CSc3ccncc3)[C@H]2SC1 : inactive
CC(C)(C)c1ccc(C(=O)O)cc1 : inactive
C[C@H]1[C@H]2CC[C@H]3[C@@H]4CC=C5C[C@@H](N(C)C)CC[C@]5(C)[C@H]4CC[C@]23CN1C : inactive
COC(=O)Nc1nc2ccc(C(=O)C3CC3)cc2[nH]1 : inactive
C[C@]12CCC(=O)C=C1[C@@H]1C[C@@H]1[C@H]1[C@@H]3[C@@H]4C[C@@H]4[C@@]4(CCC(=O)O4)[C@@]3(C)CC[C@@H]12 : inactive

Test call for this compound, please: `Oc1cc2c(cc1O)[C@H]1c3ccc(O)c(O)c3OC[C@@]1(O)C2` inactive

What did the test return for `Cc1ncc(COP(=O)(O)O)c(C=O)c1O` ? inactive

Short answer needed: outcome of this test for `CCCC(=O)OCC` ? inactive

What is the recorded call for this compound in the test? CCCCC(CC)CNC(=O)CC(C)OC(=O)CCC(=O)O (stereo not given) inactive

Give the logged outcome of this assay for the following compound: `O=C(O)CC(=O)C(=O)O` inactive

Would you mind telling me which call this test gave `CCOC(=O)NCCOc1ccc(Oc2ccccc2)cc1` ? inactive

I would be grateful if you could indicate the recorded call for `CC(C)=CCC[C@](C)(O)[C@@H]1CC=C(C)CC1` . inactive

Status in this test for `C=C[Si](OC)(OC)OC` ? inactive

Hello, I am checking results. What call was entered for `Cc1cc2c(cc1CC(=O)c1sccc1S(=O)(=O)Nc1onc(C)c1Cl)OCO2` ? inactive

----------
# system name: Beta-2 adrenergic receptor (Homo sapiens)
# assay text: Adrenergic beta2 receptor (ADRB2) small molecule antagonists, cell-based qHTS assay (AID 1963592); further: nearly all actives have a fitted effect of over 50% in size
# experimental conditions: CHO-ADRB2 cells, isoproterenol-stimulated cAMP HTRF ratio, 0.5 h; series mostly up to 92.4 µM
Records with an inconclusive call do not appear. Active and inactive are the calls of the source. Calls follow the shape of the full dose curve.
Your answer must be one of the following: active, inactive

For orientation, consider the following solved cases.
CCCOCC(C)OCC(C)O (configuration not stated) : inactive
C/C=C(\C)C(C)=O : inactive
CCO[C@H](Cc1ccc(OCCc2ccc(OS(C)(=O)=O)cc2)cc1)C(=O)O : inactive

What did this assay record as the result for `CCCCCCCC/C=C\CCCCCCCC(=O)N(C)CC(=O)O` ? inactive

Hi, sorry to bother you, what did the test record for `CCC(=O)OCCOc1ccccc1` ? inactive

Give the logged outcome of this assay for the following compound: `NC(N)=N/N=C/c1c(Cl)cccc1Cl` inactive

Tell me the assay call for COCCc1ccc(OCC2CO2)cc1 (configuration not stated) please. inactive

Test call for this compound, please: `CO[C@]12C[C@@H](COC(=O)c3cncc(Br)c3)CN(C)[C@@H]1Cc1cn(C)c3cccc2c13` active

What outcome does the record of this test show for `Cc1cc(=O)oc2cc(N(C)C)ccc12` ? inactive

Called result for `CC(C)COC(=O)/C=C/c1ccccc1` inactive

Could you kindly confirm the outcome this assay logged for `COc1ccc(OC(F)(F)F)cc1CN[C@H]1CCCN[C@H]1c1ccccc1` ? inactive

What is the recorded call for this compound in the test? CCOC(=O)c1ccc(C2CCC(NC[C@H](O)COc3ccc(O)c(NS(C)(=O)=O)c3)CC2)cc1 (some centres not stated) active

----------
# system name: 5-hydroxytryptamine receptor 2A (Homo sapiens) (UniProt P28223)
# assay text: 5-hydroxytryptamine receptor 2A (HTR2A) small molecule agonists, cell-based qHTS assay (AID 1963587); further: nearly all actives have a fitted effect of over 30% in size; further: potency means the concentration at half of the fitted maximal effect
# experimental conditions: HTR2A-CHO cells, calcium flux fluorescence, agonist mode; series mostly up to 76.8 µM
Inconclusive results are not listed. Active and inactive are the calls of the source. Calls follow the shape of the full dose curve.
recorded endpoint: Potency

Answered examples (5):
CCC(C)COC(C)=O (stereo not given) : inactive
O=[N+]([O-])c1ccc(NCCO)c(OCCO)c1 : inactive
Cc1nc2sccn2c(=O)c1CCN1CCC(=C(c2ccc(F)cc2)c2ccc(F)cc2)CC1 : inactive
O=C=NC1CCC(CC2CCC(N=C=O)CC2)CC1 (stereo not given) : 1950 nM (active)
COC(Cc1ccccc1)OC : inactive

Entry under review: `Cn1cnc2c(=O)[nH]c(N)nc21` . Reported Potency? inactive

Form field: reported Potency of `CN(C)CC/C=C1\c2ccccc2Sc2ccc(Cl)cc21` inactive

Fill blank: measured Potency of the molecule `C=C(C)C(=O)OCCOCCOCCOCCOC(=O)C(=C)C` is ____. inactive

Potency for CC[N+](CC)(CC(=O)Nc1c(C)cccc1C)Cc1ccccc1 (tested in a mixture with another compound) ? inactive

Which Potency value belongs to `O=C(/C=C/c1ccc(O)c(O)c1)O[C@@H](C(=O)O)[C@@H](OC(=O)/C=C/c1ccc(O)c(O)c1)C(=O)O` ? inactive

What does the data say about its Potency? Entry: `CC(=O)Oc1ccc(C(=C2CCCCC2)c2ccc(OC(C)=O)cc2)cc1` inactive

Value lookup for Potency; key = `COc1ccc(C(=O)c2ccc(C)cc2)c(O)c1` inactive

Suppose we examine the molecule `O=C(/C=C/c1ccc([N+](=O)[O-])cc1)c1ccccc1` ; what Potency value has been reported? inactive

----------
# system name: 5-hydroxytryptamine receptor 2A (Homo sapiens) (UniProt P28223)
# assay text: 5-hydroxytryptamine receptor 2A (HTR2A) small molecule antagonists, cell-based qHTS assay (AID 1963586); further: nearly all actives have a fitted effect of over 45% in size
# experimental conditions: HTR2A-CHO cells, DOI-induced calcium flux, fluorescence; series mostly up to 61.5 µM
Inconclusive results are not listed. Calls of active or inactive are those of the source. Calls come from the whole dose curve.
Valid outcomes are listed here; reply with one: active, inactive

Examples with answers:
CC(C)CCOC(=O)/C=C/c1ccccc1 : inactive
O=[N+]([O-])c1nccn1CO[C@@H](CO)[C@H](O)CO : inactive
CCCCCC/C=C\CCCCCCCC(=O)O : inactive

Can you look up the reported call for `C=C(C)[C@@H]1CC=C(C)C(=O)C1` for me? inactive

I'd appreciate the recorded outcome for `CCOc1ccc(C(=O)OCCN(CC)CC)cc1` from this test. inactive

For this molecule, state the assay outcome: `N#C/C(=C1/SC[C@@H](c2ccc(Cl)cc2Cl)S1)n1ccnc1` inactive

# outcome recorded in this test, key = `COc1cccc(N(C)C(=S)Oc2ccc3c(c2)CCCC3)n1` active

Identify the outcome logged in this assay for the molecule shown: CCC(C)COC(C)=O (stereo not drawn) inactive

Query: recorded result category for `C[C@]12CC[C@@H]3c4ccc(O)cc4CC[C@H]3[C@@H]1CC[C@@H]2OC(=O)CCC1CCCC1` in this test inactive

// return assay outcome for `Nc1ccc2cc3ccc(N)cc3nc2c1` inactive

Test call, this molecule: `CC(C)CC(C)(C)C` inactive

Which outcome did this test record for the molecule `c1ccc2occc2c1` ? active

For this molecule, state the assay outcome: `Cc1ccc(O)c2ncccc12` inactive
